Assay: yeast NALP1 reporter signal suppression – S. cerevisiae, luminescence, single concentration, NALP1 inhibitor project, confirmation (AID 488841);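 also: plate controls were DMSO in galactose medium for no effect and cells in plain SD medium for full effect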
Conditions: S. cerevisiae NALP1/ASC/Caspase-1 reporter, beta-gal luminescence; at 10 µM; stronger effect = higher value
Out of some 1,400 compounds screened, about 380 (27%) were called active. The list shows a part of the results.
Label 0.0 if inhibition falls below 40%; label 1.0 in every other case.

compound=CCCc1cc(C(=O)O)c2ccccc2n1 assignedclass=0.0
compound=Cc1cccc(C(=O)NNC(=O)CN2C(=O)c3ccccc3C2=O)c1 assignedclass=0.0
compound=CCCc1cc(C(=O)Nc2c(C)n(C)n(-c3ccccc3)c2=O)no1 assignedclass=0.0
compound=CCOC(=O)c1ccccc1NC(=O)COc1cc(=O)n(CC)c2ccccc12 assignedclass=0.0
compound="CN1c2ccccc2-c2nc3ccccc3n2C1c1cccs1 (stereo not given)" assignedclass=0.0
compound="CC1=C(OC(=O)c2ccc(Br)cc2)C(C)(C)C(c2ccccc2)OC1=O (stereo not given)" assignedclass=0.0

Problem: Threshold query (inhibition >= 40%) on CN(C)Cc1ccccc1COc1ccccc1
Result: 0.0

Problem: Threshold query (inhibition >= 40%) on CC(/C=N/NC(=O)CSc1ccccn1)=C\c1ccc(C(C)C)cc1
Result: 0.0

Problem: Threshold query (inhibition >= 40%) on c1cc2c3c(cccc3c1)NC1(CCCCCC1)N2
Result: 0.0

Problem: Threshold query (inhibition >= 40%) on Cc1ccc2cc3cc(C(=O)NCCCN4CCc5ccccc5C4)oc3nc2c1
Result: 0.0

Problem: Threshold query (inhibition >= 40%) on O=C(Nc1nccs1)c1sc2ccccc2c1Cl
Result: 1.0

Problem: Threshold query (inhibition >= 40%) on COC(=O)C1=C(C)NC(C)=C(C(=O)OC)C1c1ccc(OC(=O)c2oc3ccccc3c2C)c(OC)c1
Result: 0.0

Problem: Threshold query (inhibition >= 40%) on Cc1c(-c2nc(N)nc(Nc3ccccc3)n2)oc2ccccc12
Result: 0.0

Problem: Threshold query (inhibition >= 40%) on O=C(Nc1cccc(-c2nc3ncccc3o2)c1)c1cc2ccccc2o1
Result: 1.0

Problem: Threshold query (inhibition >= 40%) on CCOC(=O)c1c(C)c(C(=O)NCCCOC(C)C)c(C)n1C
Result: 0.0

Problem: Threshold query (inhibition >= 40%) on N#CC(C#N)=C(Nc1ccc(F)cc1)SCc1cccc(Br)c1
Result: 1.0

Problem: Threshold query (inhibition >= 40%) on COc1ccc(C(=O)c2c(C(F)(F)F)oc3c2C(=O)c2ccccc2C3=O)cc1
Result: 0.0

Problem: Threshold query (inhibition >= 40%) on COc1ccc(/C=N/N2CCOCC2)cc1COc1ccc(Cl)cc1
Result: 1.0

Problem: Threshold query (inhibition >= 40%) on CCn1nccc1C(=O)Nc1ccc(Cl)cn1
Result: 0.0

Problem: Threshold query (inhibition >= 40%) on CCn1ncc(C(=O)Nc2cccc(Cl)c2)c1C
Result: 1.0

Problem: Threshold query (inhibition >= 40%) on Clc1ccc2oc3c(Cl)ncnc3c2c1
Result: 0.0

Problem: Threshold query (inhibition >= 40%) on Cc1cc(Cl)c(OCCCN2CCCCC2)c(Br)c1
Result: 0.0

Problem: Threshold query (inhibition >= 40%) on O=C(N/N=C/c1ccncc1)c1cc2ccccc2o1
Result: 1.0

Problem: Threshold query (inhibition >= 40%) on Cc1ccc(F)cc1NCC(=O)Nc1ccc(Br)cc1
Result: 1.0

Problem: Threshold query (inhibition >= 40%) on Cc1ccc(NC(=O)N2CCc3ccccc3C2)cc1
Result: 1.0

* * *

Assay: yeast NALP1 reporter signal suppression – S. cerevisiae, luminescence, single concentration, NALP1 inhibitor project, confirmation (AID 488841);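 also: plate controls were DMSO in galactose medium for no effect and cells in plain SD medium for full effect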
Settings: S. cerevisiae NALP1/ASC/Caspase-1 reporter, beta-gal luminescence; at 10 µM
In all, about 1,400 compounds went through this assay and about 380 (27%) were called active.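 Rule for the calls: active = mean inhibition above 50% across duplicate retests at 10 µM; inactive = the rest.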 The list shows a part of the results.
Respond only with the outcome that fits, drawn from T = active, F = inactive

Some entries whose results are on file:
compound=COC(=O)c1c(N)c(C#N)c2n1CCCCC2 assignedclass=F
compound=COc1ccc(C(=O)NC(=S)Nc2ccccc2N2CCCCC2)cc1[N+](=O)[O-] assignedclass=T
compound="O=C(Oc1cccc2cccnc12)c1ccc(N2C(=O)C3C4CCC(C4)C3C2=O)cc1 (configuration not stated)" assignedclass=F
compound="CCOc1cccc(N2C(=O)CC(N3CCN(c4ccc(S(=O)(=O)CC)cc4)CC3)C2=O)c1 (configuration not stated)" assignedclass=F

Problem: Test call, this compound: CCOC(=O)c1ccc(N2CCOCC2)c(NC(=O)COCC(=O)O)c1
Result: F

Problem: Test call, this compound: OCCN(CCO)c1ncnc2c1oc1ccc(Br)cc12
Result: F

* * *

Assay: yeast NALP1 reporter signal suppression – S. cerevisiae, luminescence, single concentration, NALP1 inhibitor project, confirmation (AID 488841);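 also: plate controls were DMSO in galactose medium for no effect and cells in plain SD medium for full effect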
Conditions: S. cerevisiae NALP1/ASC/Caspase-1 reporter, beta-gal luminescence; at 10 µM; stronger effect = higher value
In all, about 1,400 compounds went through this assay and about 380 (27%) were called active. The list shows a part of the results.
Measured inhibition of individual entries
Just the number in %, nothing appended.

As a guide, the following entries are already answered.
compound="COc1cccc(OCc2ccc(C(=O)NCC3CCCO3)cc2)c1 (centres undefined)" valuereported=36.2
compound=CC1CCN(c2ccccc2NC(=O)c2ccc(N3CCOCC3)c([N+](=O)[O-])c2)CC1 valuereported=1.35
compound=CSc1ccc(S(=O)(=O)NCc2ccc(C)cc2)cc1 valuereported=38.7
compound=Cc1ccc(C)c(NC(=O)c2ccc(OC(=O)c3ccco3)cc2)c1 valuereported=36.8
compound=CCOC(=O)/C(=N\Nc1ccc(Cl)cc1)c1csc(Nc2ccccc2)n1 valuereported=27.4

Problem: Dear colleague, I am looking for the recorded inhibition of the following compound: O=C(COC(=O)c1cccs1)Nc1nc(-c2ccccc2)cs1
Result: 34

Problem: Dear colleague, I am looking for the recorded inhibition of the following compound: CN1C/C(=C/c2ccncc2)C(=O)/C(=C/c2ccncc2)C1
Result: 13.2

Problem: Dear colleague, I am looking for the recorded inhibition of the following compound: COc1ccc2[nH]c3c(C)c4ccncc4c(C)c3c2c1
Result: 94.5

Problem: Dear colleague, I am looking for the recorded inhibition of the following compound: Nc1nc(NCc2ccco2)nc(N2CCCCCC2)c1[N+](=O)[O-]
Result: 62.6

Problem: Dear colleague, I am looking for the recorded inhibition of the following compound: COc1ccc2c(c1)O/C(=C\c1sccc1C)C2=O
Result: 65.4

Problem: Dear colleague, I am looking for the recorded inhibition of the following compound: COc1ccc2[nH]c(C)c(CCNC(=S)Nc3cc(C)cc(C)c3)c2c1
Result: 30

Problem: Dear colleague, I am looking for the recorded inhibition of the following compound: Nc1ccc2c(c1)C/C(=C/c1ccco1)C2=O
Result: 18.6

Problem: Dear colleague, I am looking for the recorded inhibition of the following compound: Fc1ccc(NC(=S)N2CCSC2c2cccs2)cc1 (centres undefined)
Result: 17.1

Problem: Dear colleague, I am looking for the recorded inhibition of the following compound: Cc1cc(C)cc(-n2nnc(C(=O)NCc3ccccc3)c2N)c1
Result: 34.6

Problem: Dear colleague, I am looking for the recorded inhibition of the following compound: CC1CC1C(=O)Nc1nc(-c2ccccc2)cs1 (centres undefined)
Result: 66.7

Problem: Dear colleague, I am looking for the recorded inhibition of the following compound: CC1CCCN(c2nc(NCc3ccco3)nc(N)c2[N+](=O)[O-])C1 (centres undefined)
Result: 55.1

Problem: Dear colleague, I am looking for the recorded inhibition of the following compound: CCOc1nc(N2CCOCC2)nc(N2CCOCC2)n1
Result: 29.6

Problem: Dear colleague, I am looking for the recorded inhibition of the following compound: Cc1cccc(C)c1NC(=O)CSc1nc2ccccc2c(=O)[nH]1
Result: 31.1

Problem: Dear colleague, I am looking for the recorded inhibition of the following compound: NC(=NCCc1ccc(Cl)cc1)NS(=O)(=O)c1ccc(F)cc1
Result: 23.1

Problem: Dear colleague, I am looking for the recorded inhibition of the following compound: CC1CCN(c2nc(NCc3ccco3)nc(N)c2[N+](=O)[O-])CC1
Result: 67.3

Problem: Dear colleague, I am looking for the recorded inhibition of the following compound: CCn1cc(C(=O)O)c(=O)c2cc(F)c(N3CCNCC3)cc21
Result: 27.4

Problem: Dear colleague, I am looking for the recorded inhibition of the following compound: Cc1cccc(OCCCSc2nc3ccc(C)cc3[nH]2)c1
Result: 56.4

Problem: Dear colleague, I am looking for the recorded inhibition of the following compound: O=C(COC(=O)/C=C/c1cccs1)Nc1nc(-c2ccccc2)cs1
Result: 13.8

Problem: Dear colleague, I am looking for the recorded inhibition of the following compound: O=[N+]([O-])/C=C/c1ccc2c(ccn2Cc2ccccc2)c1
Result: 99.9
